Experiment: gradient 5% acetonitrile 3 min, to 50% in 2 min, to 85% in 15 min, held 3 min, 100 µL/min
Settings: column: Zorbax Extend-C18 2.1 x 50 mm; eluents: water / acetonitrile, 0.1% formic acid
Hi there, I'd appreciate the recorded RP-LC retention time for every entry that follows.
Give the value; after it, write the unit.

## Input Fill in the blank: the reported RP-LC retention time of O=C(O)c1cc(-c2ccccc2F)n[nH]1 is ____.
## Output 630 s

## Input Please report the recorded RP-LC retention time for CCOc1ccc(C(=O)Nc2ccc3c(c2)Sc2ncccc2C(=O)N3C)cc1 .
## Output 826 s

## Input Fill in the blank: the reported RP-LC retention time of O=C(NC1CCN(c2cc(-c3ccccc3)[nH]n2)C1)c1ccc2cc[nH]c2c1 (stereo not drawn) is ____.
## Output 792 s
